// reported Hydrophobicity, Luna C18(2) HST (0–60% B; 10 min), retention converted into % MeCN for each item listed
measurement-notes: Hydrophobicity by analytical RP-HPLC (% MeCN at peak elution)
Type: physicochemical
Please reply with the bare figure in % MeCN and do not write the unit itself.

CCCCCCCC(=O)N[C@@H](CCCCN)C(=O)N(CCC(=O)N[C@@H](CCCCN)C(=O)N(CCC(=O)N[C@@H](CCCCN)C(=O)N(CCC(=O)N[C@@H](CCCCN)C(=O)N(CCC(=O)N[C@@H](CCCCN)C(=O)N(CCC(=O)N[C@@H](CCCCN)C(=O)N(CCC(N)=O)[C@@H](C)c1ccccc1)[C@@H](C)c1ccccc1)[C@@H](C)c1ccccc1)[C@@H](C)c1ccccc1)[C@@H](C)c1ccccc1)[C@@H](C)c1ccccc1 [Compound 10, Oct-[Lys-βNspe]6-NH2] = 47.2

--- query ---
Hydrophobicity, Luna C18(2) HST (0–60% B; 10 min), retention converted into % MeCN for NCCCC[C@H](NC(=O)CCN(Cc1ccc(F)cc1)C(=O)[C@H](CCCCN)NC(=O)CCN(Cc1ccc(F)cc1)C(=O)[C@H](CCCCN)NC(=O)CCN(Cc1ccc(F)cc1)C(=O)[C@H](CCCCN)NC(=O)CCN(Cc1ccc(F)cc1)C(=O)[C@H](CCCCN)NC(=O)CCN(Cc1ccc(F)cc1)C(=O)[C@H](CCCCN)NC(=O)CCN(Cc1ccc(F)cc1)C(=O)[C@H](CCCCN)NC(=O)CCN(Cc1ccc(F)cc1)C(=O)[C@@H](N)CCCCN)C(=O)N(CCC(N)=O)Cc1ccc(F)cc1 [Compound 7, H-[Lys-βNPhe(F)]8-NH2] ?
41.3
